Tested on: Vero E6 cells
Measure: CC50

-- ask Recorded CC50 of CC(C)C[C@H](NC(=O)OCc1ccccc1)C(=O)N[C@@H](CC1CCNC1=O)C(O)S(=O)(=O)[O-].[Na+] (stereo partly shown) [GC-376, reference compound] , please.
-- reply > 125 µM

---

System: SARS-CoV-2
Method: microbe, parasite or virus in culture
Type: cell-based
Condition Set: Severe acute respiratory syndrome coronavirus 2; read-out: antiviral EC50 against SARS-CoV-2 in Caco2-hACE2 cells
Entries and their pEC50
pEC50 is defined as minus the log10 of a concentration measured in mol/L.

-- ask # value lookup — system SARS-CoV-2, readout pEC50, item C[C@@H](CCc1ccccc1)NC(=O)[C@@H](c1cccnc1)N(C(=O)C(Cl)Cl)c1ccc(-c2ccccc2)cc1 (single isomer, unassigned)
-- reply 5.84

-- ask # value lookup — system SARS-CoV-2, readout pEC50, item C[C@H](NC(=O)[C@@H](c1cccnc1)N(C(=O)C(Cl)Cl)c1ccc(-c2ccccc2)cc1)c1ccc(Br)cc1
-- reply 5.49

-- ask # value lookup — system SARS-CoV-2, readout pEC50, item C[C@H](NC(=O)[C@@H](c1cccnc1)N(C(=O)C(Br)(Br)Br)c1ccc(-c2ccccc2)cc1)c1ccccc1
-- reply 5.67

-- ask # value lookup — system SARS-CoV-2, readout pEC50, item C[C@H](NC(=O)[C@@H](c1cccnc1)N(C(=O)C(Cl)Cl)c1ccc(-c2ccccc2)cc1)c1ccccc1
-- reply 5.69
